# assay.name: Inhibition of His-tagged HIV-1 integrase/FLAG-tagged LEDGF (unknown origin) protein-protein interaction preincubated with integrase for 30 mins followed by LEDGF/p75 addition and measured after overnight incubation by HTRF assay
Calls of active or inactive are those of the source. No cut-off for these calls is given here.
Your response should consist of one outcome taken from 1 (yes) for active, 0 (no) for inactive

Exercise: Lab log entry: CCOC(=O)c1cn(Cc2ccc(F)cc2)c2ccc(OCc3cccc4ccccc34)cc2c1=O — outcome as called in the assay?
Key: 0 (no)

Exercise: And for CCOC(=O)c1cn(Cc2ccc(F)cc2)c2ccc(OCc3ccc(OCc4ccccc4)cc3)cc2c1=O ?
Key: 0 (no)

Exercise: Another: O=C(O)/C(O)=C/C(=O)c1ccc2[nH]cc(C(=O)/C=C(\O)C(=O)O)c(=O)c2c1
Key: 1 (yes)

Exercise: Repeat with O=C(O)/C(O)=C/C(=O)c1ccc2c(c1)c(=O)c(C(=O)/C=C(\O)C(=O)O)cn2Cc1ccc(F)cc1
Key: 1 (yes)

Exercise: Could you do the same for CCOC(=O)/C(O)=C/C(=O)c1cc2c(=O)c(C(=O)/C=C(\O)C(=O)OCC)cn(Cc3ccc(F)cc3)c2cc1N1CCN(C)CC1 , please?
Key: 0 (no)

Exercise: Follow-up item: O=C(O)/C(O)=C/C(=O)c1cn(Cc2ccc(F)cc2)c2ccc(C(=O)c3ccc(C(=O)O)cc3)cc2c1=O
Key: 0 (no)

Others:
Exercise: Field: outcome | Entry: CN(C)c1cc2c(cc1C(=O)/C=C(\O)C(=O)O)c(=O)c(C(=O)/C=C(\O)C(=O)O)cn2Cc1ccc(F)cc1
Key: 0 (no)

###

# assay.name: Inhibition of His-tagged HIV-1 integrase/FLAG-tagged LEDGF (unknown origin) protein-protein interaction preincubated with integrase for 30 mins followed by LEDGF/p75 addition and measured after overnight incubation by HTRF assay
Activity calls are given as the source filed them. The calls are words filed in the database; no cut-off is given here.
Please state which outcome applies, choosing from Yes = active, No = inactive

Exercise: Just curious, what result did O=C(O)c1cn(Cc2ccc(F)cc2)c2ccc(OCc3ccc(OCc4ccccc4)cc3)cc2c1=O get here?
Key: No

Exercise: How about this molecule: O=C(O)c1cn(Cc2ccc(F)cc2)c2ccc(Oc3ccccc3)cc2c1=O
Key: No

Exercise: Proceed to O=C(O)c1cn(Cc2ccc(F)cc2)c2ccc(OCc3ccc(F)cc3)cc2c1=O
Key: No

Exercise: Follow-up entry: CCOC(=O)/C(O)=C/C(=O)c1cc2c(=O)c(C(=O)/C=C(\O)C(=O)OCC)cn(Cc3ccc(F)cc3)c2cc1N(C)C
Key: No

Exercise: Again, but for O=C(O)c1cn(Cc2ccc(F)cc2)c2ccc(OCc3cccc4ccccc34)cc2c1=O
Key: No

Exercise: Consider next the molecule CCOC(=O)/C(O)=C/C(=O)c1ccc2[nH]cc(C(=O)/C=C(\O)C(=O)OCC)c(=O)c2c1 in the same way.
Key: Yes

Exercise: Query CCOC(=O)/C(O)=C/C(=O)c1cn(Cc2ccc(F)cc2)c2ccc(C(=O)c3ccc(C(=O)OCC)cc3)cc2c1=O next
Key: No

Further cases:
Exercise: # lookup: test call for CCOC(=O)/C(O)=C/C(=O)c1ccc2c(c1)c(=O)c(C(=O)/C=C(\O)C(=O)OCC)cn2Cc1ccc(F)cc1
Key: No
